From: the DeepSol protein solubility set

test: soluble on expression in E. coli; label from the status in PepcDB or PDB records
test.readout: soluble on expression in E. coli

Observe how each entry below is paired with its result.
LQNKFKKYSKIPTGNGMTGRDVAIKMLQDNGIYDVQVTHTPGQLTDHYNPANKTVNLSEGVYDSNSIMAAAVAAHECGHAVQHARAYAPLTLRSK: not soluble
SLPHIITRKVISVEQNWLQQLANAISDPLQLLQQLEIDPSPWQDGFEARKLFAQRVPQSFVDRMQKGNPADPLLRQVLPLSAEFEIHPGYSHDPLDEQNNTVPGLLHKYKNRCLLIVKGGCAINCRYCFRRHFPYEDNKGGKSAWQQSLDYIAQNPQLNEVIFSGGDPLMAKDHEIAWLMERIAAIPHIKRLRIHSRLPVVIPARITDELVELFAQTRLQVLLVTHINHANEINLELKQQMARLRAVNVTLLNQGVLLKGVNDTVDAQVSLSETLFDAGILPYYLHVLDKVQGAAHFYVSDDKARQIMAGLIEQVSGYLVPKLTREIGGRPSKTPLDLHLE: not soluble
MATVSDDYAQIDISTEEKDKLVAEVMRHVLFKTHQTAGCPIKREELTQIVTKNYRQRVLPALVIKEAGDRLAATFGYEMRELQRTRAPSTRSGRPSQQQVNVDAKSYVLVSKLDPEVYSKYVEHKEAAHVSGFAFVVISIVHLSGGKISEEDLWHQLRRLGLNESDENHPVLGNNKQALELLVQQRYLLKEKLSGPEGHSMMYELAERALDESISGKLKDYISQVVSTSTAAEVD: soluble
MAHHHHHHMSLLKADQLRRDLFIKYSDKIAELLGETEECSPTEEQREKEEIETTEQRGLSSLPKRFRISYPRQHLLRQRAMQMPPAADVGDAENSPASASNSTCPPLGETATDEDENVETIWVELDEEEKRPVYNEPYPSVKRMMRRMQDESLRLLMREARIPVTPHQGDAYLLQRMEVLQQLEKNIGDDRIKILARLQKMDGKLHTCE: soluble
MGSDKIHHHHHHVDALEVHRFLKGKIRTALPVEKVDRETLSLLYTPGVADVARACAEDPEKTYVYTSRWNTVAVVSDGSAVLGLGNIGPYGALPVMEGKAFLFKAFADIDAFPICLSESEEEKIISIVKSLEPSFGGINLEDIGAPKCFRILQRLSEEMNIPVFHDDQQGTAVVVSAAFLNALKLTEKKIEEVKVVVNGIGAAGYNIVKFLLDLGVKNVVAVDRKGILNENDPETCLNEYHLEIARITNPERLSGDLETALEGADFFIGVSRGNILKPEWIKKMSRKPVIFALANPVPEIDPELAREAGAFIVATGRSDHPNQVNNLLAFPGIMKGAVEKRSKITKNMLLSAVEAIARSCEPEPERIIPEAFDMKVHLNVYTAVKGSA: soluble

soluble on expression in E. coli in this record for MVERLEALFDALAELTGQRNAIDAKIVQIVAEIDRDGLWGATGARSISALVAWKTGASERNAKAIAAVAHRAEEFPRCVQGLGAGRLSLDQVGVIAEGAADGSDEHYAALASVATVSQLRKAISLEPKPEPEPKPDPRRSIRTNPGDGYTTYHITLPRLEAAKFDTALEASHEGLIARWEREQDPGDPAVPMPDLVDAFMALVETGWDREATRRPHGQHTAVAVHVDLKSKVAALHLGPLLGDDERRLLTCDATCEVWFELRGRVIGTGRATRTVNRRLRRALEHRDRCCVVPGCSATRGLHAHHLVHWEDGGLTEMANLVLLCPYHHRAHHRGLITITGPADQLTVTDDRGRLLTNQSLARTPLEHHHHHH : soluble

====

assay: soluble on expression in E. coli; label from the status in PepcDB or PDB records
test.readout: soluble on expression in E. coli

GPGSMHEDGQFLRAFLLRVLANDMQRMLATNTCATYFRNIPLEPEYDASGNRTNTPENVVMEKRLRVMDDISKLLRTYVERAEYAANKSKDINRRIYFTAEQIETGDYGALIGPRGLVHQQLEKETNCHIVLVGRGITNPLKDTNPNAASMALEDPHVRITATTEEDLQTAAERIEWILSDEPEAVEFRENNRRRMAQVDGRYDPRTWMTAAEKRKKAAAEKAAAAGGAAAGEDETKAEKGRKREREEAPVEEEDTELNEFLEDL: soluble
MPRFAANLSMMFTEVPFIERFAAARKAGFDAVEFLFPYNYSTLQIQKQLEQNHLTLALFNTAPGDINAGEWGLSALPGREHEAHADIDLALEYALALNCEQVHVMAGVVPAGEDAERYRAVFIDNIRYAADRFAPHGKRILVEALSPGVKPHYLFSSQYQALAIVEEVARDNVFIQLDTFHAQKVDGNLTHLIRDYAGKYAHVQIAGLPDRHEPDDGEINYPWLFRLFDEVGYQGWIGCEYKPRGLTEEGLGWFDAWRGS: soluble

====

experiment: soluble on expression in E. coli; label from the status in PepcDB or PDB records
test.readout: soluble on expression in E. coli

MAHHHHHHMLRRVSLSALVQRVAAGAVIATAGRTIVVFSQQHHILESNQRARNSPSNVWIEDWEADRLGMKPEPGALPTQLVLDKQLELFNFDQLLSPPEVMEAPKHSSYSSRKVYGERLQFELNDRAQRHSYQSKWWITRGQAYKENLQFKANARSSILLTKSQIKLFHSSQLSGGEALQQYPVSGGSRRVYSKKGEAFQLLQDHIKSNDFNSGLYFTRRQMEFFKLAPLPDQVPVVQEAATGDRHLIYNVDQLEDPHLALKTLQRAPVNVPTFLLSGEPIMSENTRKFPKTFRSNYWLTGRDAELYQWPIKESERRRGVPFSTGTSAPVQYELFNVEQLSNPDEAFARAGLLIQ: soluble
MSLQEKNFSEEEIDDALSRCQAKNWQSDRRFSENYLNSRVQKGYGVGRIRQELRQLKGVSSDIIDEVLMESEIDWYEMAENLLRKKFPNYNEQQTPKMKQKIWQYMLSHGFRSDEFADLIGQNQSEWDEGHHHHHH: soluble

====

assay: soluble on expression in E. coli; label from the status in PepcDB or PDB records
test.readout: soluble on expression in E. coli

Example results:
MGSDKIHHHHHHMRILEINTEKGWRGGENQTLLALIGFRKLGHEAELLCFENSALHVQAAAAGFTCHPLTSSTKSIGFLMEYGKNYSILHTQTSKQLTYCILTKPFHNSKVILSRRVDFVPKGFFTLLKYNACDGIICVSGAIEKILKQSGIKTRTVVISDCVTEKTLNKTRAQELLQKLTISGKNIIGTTAALVPHKDPVTLVNAVNILRTKRSDFVLLHFGSGPLAATIQQFITDNNLQDYYKLIGFKERVEDYFSIFNYFVMSSQEEGLGSSVLDAFVYKVPVVSTNAGGLNELVTGRGYVTEKKNAQLLAEALHTAMNSPEQNKKNVAAGYTYAVSNLSVEKIHEEHIDFFKTV: not soluble
MFDGIGFMELLLIGVLGLIVLGPERLPVAVRSVTSWVRAMKRMANSVKEELEQELKIEQLHADLKKAESKGLSNLSPELQESIEQLKQAAQSVNRPYQVQDTPSAQDNQIHNPASQTVSTEASSTSASSAPKSESIQGEDPRSNTKANGLEHHHHHH: soluble
MYTIAALYHFTRFADPADLKPALLDLCLAQGVKGTLLLAKEGINGTIAGPRAGIDAVLAHIRALPGCSDLEWKEATSDHPPFGKMKVRLKQEIVTMGQPDVDPRARVGHYVEPEDWNDLIRSDDVVLIDTRNDYEVAIGTFEGAIDPMTESFRDFPAWWEANKERFHNKRVAMFCTGGIRCEKSTNYLLGQGVEDVYHLKGGILRYLEEVPAENSTWQGECFVFDNRVSVGHGLVEGPHELCHGCRRPILPEDRNRPEYEHGVSCHLCIDETSEADKMRFRERQKQIALARARGEDHLATHLEHHHHHH: soluble
MGSDKIHHHHHHMVEKLASSEVANRLNEWYDTIKQQDVERASKLRNEVQEAINQMEEDQNVLQYFNLIDSRFRQVIEEFDKSKTILKSIKNQTERSETDQLLRYYYFFFNGLYEFYKRNYIQAIHYYRQAENFLISIPDEIEHAEFHIQLANAYYGIEQNFFSLSHAKKALNIYLNHENYVNRLITTQLTIAANELDLKQYGSAETLYKKAIKTASEHNHAFMEVLGYFNLGICYELQDKLEFARDCFEAALDISYPQENKRDSYLRIKYMLARTLFKMELVDEAMDWFEDAQTLVDATNEETYQAKLKIIYSIYKTYDETSIDNGLEVLREKKLWHDVSDLTTNAARHFKKKEMFKLATKYFSEALLAKEKIPMLHKEVESE: not soluble

Turning now to a further sequence:
Measured soluble on expression in E. coli, MGSDKIHHHHHHMKKVLVIRNDKLGDFMLAWPAFAMLKASDPSLKLTALVPTYTAEIARACPYLDEVIIDVPKGDKAAFQRLVNDIKAQRFDAMISFFSNTHNAKLAWKCRIPYRLAPATKWVQFFYNHRLVQRRSQSAKPEFAYNLDLARRFLQDQSIAVVEPRPPYLSFPKSAVDFQREFLCLQLNVDSSKKWIFVHSGSGGSANNLSLAQYAALIRGLLAQFDAYVILTAGPNESEKAHELAGLVQDARVVVYDKNKGLVDFAQSLACADLFIAGSTGPLHLSGALNVPTIGFYPSRRSATPLRWQPINDEAKHLAFCPSNDKASQTDLSKISIEEKLAKMIRFITKVWHAADK : not soluble
